Biological target: Hck (UniProt P08631)
Sequence (P08631 whole entry, looked up): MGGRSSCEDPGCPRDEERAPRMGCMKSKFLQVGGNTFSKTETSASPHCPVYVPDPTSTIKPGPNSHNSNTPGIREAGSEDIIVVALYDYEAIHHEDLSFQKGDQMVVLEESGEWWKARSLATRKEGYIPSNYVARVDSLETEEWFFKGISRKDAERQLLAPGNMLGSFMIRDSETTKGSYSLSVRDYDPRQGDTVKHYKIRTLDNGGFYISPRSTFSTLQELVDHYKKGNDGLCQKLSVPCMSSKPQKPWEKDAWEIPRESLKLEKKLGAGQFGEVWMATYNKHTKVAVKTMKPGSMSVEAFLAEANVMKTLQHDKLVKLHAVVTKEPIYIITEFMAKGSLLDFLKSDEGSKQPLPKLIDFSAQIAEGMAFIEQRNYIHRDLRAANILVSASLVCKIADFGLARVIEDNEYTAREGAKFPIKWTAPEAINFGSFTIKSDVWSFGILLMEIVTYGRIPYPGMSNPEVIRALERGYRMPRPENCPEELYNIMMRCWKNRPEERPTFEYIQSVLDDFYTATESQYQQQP
Assay: phosphorylation enrichment, bacterial display (enrichment ratio); higher = better substrate or ligand; peptides without Tyr show the background;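 further: 11-residue human phosphosite peptides and single-mutation variants displayed on the E. coli surface, counted by deep sequencing, each peptide's frequency after selection divided by its frequency in the unselected input library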;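 further: frequency after pTyr selection over input frequency; kinase dosed for 20-30% of maximal phosphorylation in three min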
PROPERTY LABEL: phosphorylation enrichment
Please respond with just the number, no unit label.

Example sequences with recorded phosphorylation enrichment:
FKDYFYCWNTF [AICDA_Y146]
0.557
RYVTRHIYNRE [HLA-DQB1_Y62_Y62H]
0.662
EGWQVYRLGTR [MISP_Y95_A99T]
1.03
EVDELYREAPI [MYL12B_Y143]
0.705
IKNSGYISQFL [EIF2AK3_Y585_R588Q_YF]
0.458

Ask | Please look up its phosphorylation enrichment: FNNPAYFVLEG [INPPL1_Y986_YF]
Reply | 0.578

Ask | Here is the next sequence: GIYSGYDDAWD [POLR1C_Y36_N32I]
Reply | 5.99
